- System: MKN45 cells
- assayOverview: MKN45 cell proliferation assay (Cell-Titer-Glo, 120 hr)
- Assay type: cell-based
- testContext: Homo sapiens, MKN-45, 120 h, read-out: MKN45 Cell Prolif. 120 hr EC50
Reported pEC50 values follow for various molecules
pEC50 (log units): -log10 of the concentration in mol/L.

Solved entries:
molecule	quantityMeasured	value
COC[C@@H]1CN(Cc2cc3ccc(N4CCOCC4)cc3cn2)C[C@H]1Oc1ccc2c(c1)CN([C@H]1CCC(=O)NC1=O)C2=O	pEC50	9.00
COC[C@@H]1CN(Cc2ccc3nc(N4C[C@@H]5CCO[C@@H]5C4)ncc3c2)C[C@H]1Oc1ccc2c(c1)CN([C@H]1CCC(=O)NC1=O)C2=O (single isomer, unassigned)	pEC50	8.15

Can you look up the measured pEC50 of COC[C@@H]1CN(Cc2ccc3ccc(N4CCOCC4)nc3c2F)C[C@H]1Oc1ccc2c(c1)CN([C@H]1CCC(=O)NC1=O)C2=O for me? 7.06

====

- systemUnderTest: WEE1 (Homo sapiens, UniProt P30291+Q96SW2)
- Construct: C-terminal ePL-tagged (DiscoverX, Fremont, CA) full-length WEE1 expression construct; expressed in transfected cells; host or cells: LentiX-HEK293T (Invitrogen), lentivirally transduced; the cells also over-express GSPT1-GN
- Sequence (P30291 whole entry): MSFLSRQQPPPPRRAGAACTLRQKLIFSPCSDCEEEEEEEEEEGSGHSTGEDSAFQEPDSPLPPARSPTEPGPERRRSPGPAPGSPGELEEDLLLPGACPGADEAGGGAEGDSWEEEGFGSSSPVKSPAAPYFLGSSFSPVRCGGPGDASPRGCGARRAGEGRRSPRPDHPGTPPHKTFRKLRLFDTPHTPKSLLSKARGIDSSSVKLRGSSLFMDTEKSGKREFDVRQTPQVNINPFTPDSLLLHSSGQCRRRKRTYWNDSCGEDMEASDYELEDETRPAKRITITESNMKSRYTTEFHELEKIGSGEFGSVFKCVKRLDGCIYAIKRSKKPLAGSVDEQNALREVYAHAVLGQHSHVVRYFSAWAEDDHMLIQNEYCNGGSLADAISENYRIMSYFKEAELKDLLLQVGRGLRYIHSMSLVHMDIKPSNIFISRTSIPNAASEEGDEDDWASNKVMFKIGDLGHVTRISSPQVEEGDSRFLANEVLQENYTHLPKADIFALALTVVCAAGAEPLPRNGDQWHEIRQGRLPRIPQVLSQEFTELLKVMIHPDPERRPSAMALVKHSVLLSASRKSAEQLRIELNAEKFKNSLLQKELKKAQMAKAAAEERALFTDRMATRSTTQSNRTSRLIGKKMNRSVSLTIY
- Sequence (Q96SW2 whole entry): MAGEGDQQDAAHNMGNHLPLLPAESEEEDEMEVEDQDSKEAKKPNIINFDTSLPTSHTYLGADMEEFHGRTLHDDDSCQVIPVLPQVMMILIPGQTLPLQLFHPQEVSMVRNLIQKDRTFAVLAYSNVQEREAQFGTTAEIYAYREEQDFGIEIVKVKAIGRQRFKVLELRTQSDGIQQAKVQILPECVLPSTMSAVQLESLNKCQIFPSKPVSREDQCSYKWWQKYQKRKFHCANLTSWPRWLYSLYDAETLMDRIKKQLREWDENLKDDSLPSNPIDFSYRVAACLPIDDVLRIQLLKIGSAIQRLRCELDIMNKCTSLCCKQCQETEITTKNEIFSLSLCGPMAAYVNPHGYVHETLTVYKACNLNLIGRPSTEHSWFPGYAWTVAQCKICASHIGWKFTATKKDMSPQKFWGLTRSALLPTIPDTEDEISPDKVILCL
- Sequence (Q16531 whole entry partner): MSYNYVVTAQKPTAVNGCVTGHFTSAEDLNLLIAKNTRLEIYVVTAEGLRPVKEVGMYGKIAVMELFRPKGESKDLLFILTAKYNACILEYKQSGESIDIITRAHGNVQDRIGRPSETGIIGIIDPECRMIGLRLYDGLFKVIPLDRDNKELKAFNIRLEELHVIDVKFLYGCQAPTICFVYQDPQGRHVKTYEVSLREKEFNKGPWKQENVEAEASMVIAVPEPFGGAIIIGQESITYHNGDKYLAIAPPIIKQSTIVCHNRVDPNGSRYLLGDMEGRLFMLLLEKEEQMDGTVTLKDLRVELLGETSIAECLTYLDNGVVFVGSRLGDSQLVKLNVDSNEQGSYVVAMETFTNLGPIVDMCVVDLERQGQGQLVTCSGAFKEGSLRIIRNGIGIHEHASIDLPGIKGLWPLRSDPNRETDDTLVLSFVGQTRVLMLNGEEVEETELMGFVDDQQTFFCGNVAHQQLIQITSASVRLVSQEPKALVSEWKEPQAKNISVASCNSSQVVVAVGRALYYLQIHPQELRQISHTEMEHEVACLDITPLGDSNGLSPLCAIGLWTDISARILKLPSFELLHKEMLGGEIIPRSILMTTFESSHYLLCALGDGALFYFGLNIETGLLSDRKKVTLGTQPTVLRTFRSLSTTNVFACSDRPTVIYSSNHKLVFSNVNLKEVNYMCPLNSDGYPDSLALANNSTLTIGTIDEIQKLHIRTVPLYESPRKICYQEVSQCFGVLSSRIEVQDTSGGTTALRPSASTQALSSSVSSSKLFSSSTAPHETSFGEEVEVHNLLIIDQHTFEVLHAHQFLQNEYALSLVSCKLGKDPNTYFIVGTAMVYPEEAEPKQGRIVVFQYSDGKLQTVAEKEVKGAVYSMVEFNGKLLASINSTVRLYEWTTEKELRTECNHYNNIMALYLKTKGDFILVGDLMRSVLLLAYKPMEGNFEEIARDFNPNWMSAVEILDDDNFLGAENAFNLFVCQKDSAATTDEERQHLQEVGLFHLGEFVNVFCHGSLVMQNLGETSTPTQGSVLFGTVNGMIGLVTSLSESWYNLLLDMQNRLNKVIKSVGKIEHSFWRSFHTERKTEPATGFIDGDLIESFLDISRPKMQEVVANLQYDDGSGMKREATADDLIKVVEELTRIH
- assayOverview: WEE1-ePL degradation assay (293T-LentiX, InCELL Hunter luminescence, 4 hr)
- Type: cell-based
- testContext: lower limit of fit, % of DMSO control signal remaining; 4 hr
Consider the cut-off 30%. If the recorded 293T-LentiX WEE1-ePL Degradation 4 hr YMin (%) is strictly smaller, the label is Satisfied; if not, the label is Not satisfied.

compound	answerLabel
COC[C@@H]1CN(Cc2cc(F)c3nc(N4CCC45COC5)ncc3c2)C[C@H]1Oc1ccc2c(c1)CN([C@H]1CCC(=O)NC1=O)C2=O	Not satisfied

293T-LentiX WEE1-ePL Degradation 4 hr YMin (%) under 30%? Item: Cc1cc([C@H]2CN(Cc3cc(F)c4nc(C5CCOCC5)ccc4c3)C[C@@H]2Oc2ccc3c(c2)CN([C@H]2CCC(=O)NC2=O)C3=O)ccn1 (relative stereo) Satisfied

====

- systemUnderTest: WEE1 (Homo sapiens, UniProt P30291+Q96SW2)
- Construct: C-terminal ePL-tagged (DiscoverX, Fremont, CA) full-length WEE1 expression construct; expressed in transfected cells; host or cells: LentiX-HEK293T (Invitrogen), lentivirally transduced; the cells also over-express GSPT1-GN
- assayOverview: WEE1-ePL degradation assay (293T-LentiX, InCELL Hunter luminescence, 4 hr)
- Type: cell-based
- testContext: LentiX-HEK293T cells expressing WEE1-ePL, 4 hr incubation; read-out: 293T-LentiX WEE1-ePL Degradation 4 hr EC50
Param label: returns y when DC50 < 3 nM, returns n otherwise, including exact equality.

Consider the following illustrative entries.
compound	answerLabel
O=C(O)CC(CCO)c1ccc2cc(CN3CC[C@H](Oc4ccc5c(c4)CN([C@H]4CCC(=O)NC4=O)C5=O)C3)cc(F)c2n1 (relative stereo) [Example 99]	n
O=C1CC[C@H](N2Cc3cc(O[C@H]4CCN(Cc5cc(F)c6nc(N7C[C@@H]8CCO[C@@H]8C7)ccc6c5)C4)ccc3C2=O)C(=O)N1 (single isomer, unassigned) [Example 81]	y
COC[C@@H]1CN(Cc2cc(F)c3nc(N4CCOC5(COC5)C4)ncc3c2)C[C@H]1Oc1ccc2c(c1)CN([C@H]1CCC(=O)NC1=O)C2=O [Example 80]	y
COC[C@@H]1CN(Cc2ccc3nc(N4CCN(C5CN(C)C5)CC4)ccc3c2)C[C@H]1Oc1ccc2c(c1)CN([C@H]1CCC(=O)NC1=O)C2=O [Example 113]	n
CC(C)C[C@H]1CN(Cc2cc(F)c3nc(C4CCOCC4)ccc3c2)C[C@@H]1Oc1ccc2c(c1)CN([C@H]1CCC(=O)NC1=O)C2=O (relative stereo) [Example 148]	y

Hello, is DC50 of the following compound strictly smaller than 3 nM? COC[C@@H]1CN(Cc2ccc3ncc(N4CCOCC4)cc3c2)C[C@H]1Oc1ccc2c(c1)CN([C@H]1CCC(=O)NC1=O)C2=O [Example 29] y

is_below(DC50, 3 nM) for COC[C@@H]1CN(Cc2cc(F)c3nc(N4CCC45CCOCC5)ccc3c2)C[C@H]1Oc1ccc2c(c1)CN([C@H]1CCC(=O)NC1=O)C2=O [Example 72] ? y

State whether 3 nM exceeds DC50 recorded for COC[C@@H]1CN(Cc2cc(F)c3nc(C4CCCO4)ncc3c2)C[C@H]1Oc1ccc2c(c1)CN([C@H]1CCC(=O)NC1=O)C2=O (mixture of isomers) [Example 76] . n

Please let me know if COC[C@@H]1CN(Cc2cc(F)c3nc(N4CCN(C(C)=O)C5(CC5)C4)ccc3c2)C[C@H]1Oc1ccc2c(c1)CN([C@H]1CCC(=O)NC1=O)C2=O [Example 92] shows DC50 below 3 nM. y

====

- systemUnderTest: WEE1 (Homo sapiens, UniProt P30291+Q96SW2)
- Construct: C-terminal ePL-tagged (DiscoverX, Fremont, CA) full-length WEE1 expression construct; expressed in transfected cells; host or cells: LentiX-HEK293T (Invitrogen), lentivirally transduced; the cells also over-express GSPT1-GN
- assayOverview: WEE1-ePL degradation assay (293T-LentiX, InCELL Hunter luminescence, 4 hr)
- Format: cell-based
- testContext: LentiX-HEK293T cells expressing WEE1-ePL, 4 hr incubation; read-out: 293T-LentiX WEE1-ePL Degradation 4 hr EC50
quantityMeasured: DC50 (nM)
Reply numerically in nM, unit not repeated.

// below: answered compounds
compound	systemUnderTest	DC50 [nM]
O=C1CC[C@H](N2Cc3cc(O[C@@H]4CN(Cc5ccc6nc(N7C[C@@H]8CCO[C@@H]8C7)ccc6c5)CC4(F)F)ccc3C2=O)C(=O)N1 (single isomer, unassigned)	WEE1 (Homo sapiens, UniProt P30291+Q96SW2)	2
COC[C@@H]1CN(Cc2cc(F)c3nc(N4CCN(C5COC5)CC4)ncc3c2)C[C@H]1Oc1ccc2c(c1)CN([C@H]1CCC(=O)NC1=O)C2=O	WEE1 (Homo sapiens, UniProt P30291+Q96SW2)	1
COC[C@@H]1CN(Cc2cc3ccc(C4CCC(O)CC4)cc3cn2)C[C@H]1Oc1ccc2c(c1)CN([C@H]1CCC(=O)NC1=O)C2=O (relative stereo)	WEE1 (Homo sapiens, UniProt P30291+Q96SW2)	1

Bench note: what DC50 did COC[C@@H]1CN(Cc2ccc3nc(N4CCN(C(C)=O)C5(COC5)C4)ccc3c2)C[C@H]1Oc1ccc2c(c1)CN([C@H]1CCC(=O)NC1=O)C2=O show? 1

Quick check: DC50 of COC[C@@H]1CN(Cc2cc(F)c3c(ccn3C(=O)C3CCOCC3)c2)C[C@H]1Oc1ccc2c(c1)CN([C@H]1CCC(=O)NC1=O)C2=O ? 5

====

Recorded 293T-LentiX WEE1-ePL Degradation 4 hr YMin (%) by entry
- systemUnderTest: WEE1 (Homo sapiens, UniProt P30291+Q96SW2)
- Construct: C-terminal ePL-tagged (DiscoverX, Fremont, CA) full-length WEE1 expression construct; expressed in transfected cells; host or cells: LentiX-HEK293T (Invitrogen), lentivirally transduced; the cells also over-express GSPT1-GN
- assayOverview: WEE1-ePL degradation assay (293T-LentiX, InCELL Hunter luminescence, 4 hr)
- Assay type: cell-based
- testContext: lower limit of fit, % of DMSO control signal remaining; 4 hr
- Excerpt: To generate LentiX-WEE1-ePL-GSPT1-ND cells for the WEE1 degradation assay, LentiX-HEK293T (Invitrogen) were tranduced by lentivirus with a C-terminal ePL-tagged (DiscoverX, Fremont, CA) full-length WEE1 expression construct. A separate lentiviral construct was introduced to over-express a mutated form of GSPT1 (NP_002085), termed GSPT1-GN, which contains a G575N mutation and is further truncated in the first 158 amino acids. GSPT1-GN is functional but not degradable by Cereblon. […]

compound	value
O=C1CC[C@H](N2Cc3cc(O[C@H]4CCN(Cc5ccc6nc([C@@H]7CCO[C@@]8(CCOC8)C7)ccc6c5)C4)ccc3C2=O)C(=O)N1 (relative stereo)	30.3%

I am curious: what 293T-LentiX WEE1-ePL Degradation 4 hr YMin (%) value has been reported for COC[C@@H]1CN(Cc2cc(F)c3ncc(N4CCOCC4)cc3c2)C[C@H]1Oc1ccc2c(c1)CN([C@H]1CCC(=O)NC1=O)C2=O ? 27.9%

====

- Tested on: MKN45 cells
- assayOverview: MKN45 cell proliferation assay (Cell-Titer-Glo, 120 hr)
- Format: cell-based
- testContext: Homo sapiens, MKN-45, 120 h, read-out: MKN45 Cell Prolif. 120 hr EC50
Labelling: EC50 reported below 5 nM becomes Yes; at or above becomes No.

Solved cases (5 shown):
molecule	answerLabel
CC(C)C[C@@H]1CN(Cc2cc(F)c3nc(C4CCOCC4)ccc3c2)C[C@H]1Oc1ccc2c(c1)CN([C@H]1CCC(=O)NC1=O)C2=O (relative stereo) [Example 130]	Yes
O=C1CC[C@H](N2Cc3cc(O[C@H]4CN(Cc5cc(F)c6nc(C7CCOCC7)ccc6c5)C[C@@H]4C4CCCC4)ccc3C2=O)C(=O)N1 (relative stereo) [Example 146]	Yes
COC[C@@H]1CN(Cc2ccc3cc(N4CCOCC4)cnc3c2)C[C@H]1Oc1ccc2c(c1)CN([C@H]1CCC(=O)NC1=O)C2=O [Example 102]	No
Cc1cc([C@@H]2CN(Cc3cc(F)c4nc(C5CCOCC5)ccc4c3)C[C@H]2Oc2ccc3c(c2)CN([C@H]2CCC(=O)NC2=O)C3=O)cc(C)n1 (relative stereo) [Example 127]	No
COC[C@@H]1CN(Cc2cc(F)c3nc(COC4CCN(C)CC4)ccc3c2)C[C@H]1Oc1ccc2c(c1)CN([C@H]1CCC(=O)NC1=O)C2=O [Example 34]	Yes

Threshold test, EC50 < 5 nM: O=C(O)CC(CCO)c1ccc2cc(CN3CC[C@H](Oc4ccc5c(c4)CN([C@H]4CCC(=O)NC4=O)C5=O)C3)cc(F)c2n1 (relative stereo) [Example 99] No

Please state whether EC50 is below 5 nM for COC[C@@H]1CN(Cc2cc(F)c3nc(N4CCN(C5COC5)CC4)ccc3c2)C[C@H]1Oc1ccc2c(c1)CN([C@H]1CCC(=O)NC1=O)C2=O [Example 142] Yes

For COC[C@@H]1CN(Cc2cc3ccc(N4CCN(C(C)=O)C5(COC5)C4)cc3cn2)C[C@H]1Oc1ccc2c(c1)CN([C@H]1CCC(=O)NC1=O)C2=O [Example 87] , is the recorded EC50 below the cut-off of 5 nM? No

Input COC[C@@H]1CN(Cc2cc(F)c3nc(N4CCOC5(COC5)C4)ncc3c2)C[C@H]1Oc1ccc2c(c1)CN([C@H]1CCC(=O)NC1=O)C2=O [Example 80] ; condition: EC50 strictly below 5 nM. Does it hold? Yes
